protocol_summary: log P (octanol-water fractionation coefficient)
condition_label: octanol/water
One threshold, 2, splits the recorded logP values: lower ones are fulfilled, equal or higher ones are not fulfilled.

COc1cc(C=O)ccc1O [Vanillin] : fulfilled
CCOC(=O)c1ccccc1C(=O)O [2-(ethoxycarbonyl)benzoic acid] : fulfilled
CCCCCCC(C=O)=Cc1ccccc1 [Alpha-hexyl cinnamaldehyde, reference compound] : not fulfilled
CC(C)=CCC/C(C)=C/CO [Geraniol] : not fulfilled

Req: Item Cc1nc(N(C)C)nc(O)c1C : logP beneath 2, strictly?
Resp: fulfilled

Req: Item Oc1cccc(O)c1 [Resorcinol] : logP beneath 2, strictly?
Resp: fulfilled

====

Let's look at some compounds and their measured logP.
protocol_summary: log P (octanol-water fractionation coefficient)
condition_label: octanol/water
Reply with the value as a number alone.

Below are worked cases with known answers.
Cc1cc(O)c(C)c(O)c1C(=O)O [2,4-Dihydroxy-3,6-dimethylbenzoic acid] : 2.19
OCCO [Ethylene glycol, reference compound] : -1.93

Let's switch to this compound now.
Lab note: measured logP of CCCCOCCOCCO was 0.65
